Origin of the recorded values: patent US20230399341A1

IC50 data for Human HPK1, catalytic domain (Homo sapiens) follow.
result type: IC50 (nM)

(a) COc1cc2c(cc1Nc1ncc3ccc(-c4ccc5c(c4)C(=O)N(CC4CC4)C5)cc3n1)CNCC2
(b) COc1cc2c(cc1Nc1ncc3c(N)c(F)c(-c4cnc5c(c4C)NCCO5)cc3n1)CN(C(C)C)CC2
Enquiry: Given the listed records, identify the one among a and b with higher IC50. Let me know the label of the one you choose.
Return: a
(a: 161 nM, b: 0.117 nM)

###

# test target: Human HPK1, catalytic domain (Homo sapiens)
# Sequence (Q92918 1-346): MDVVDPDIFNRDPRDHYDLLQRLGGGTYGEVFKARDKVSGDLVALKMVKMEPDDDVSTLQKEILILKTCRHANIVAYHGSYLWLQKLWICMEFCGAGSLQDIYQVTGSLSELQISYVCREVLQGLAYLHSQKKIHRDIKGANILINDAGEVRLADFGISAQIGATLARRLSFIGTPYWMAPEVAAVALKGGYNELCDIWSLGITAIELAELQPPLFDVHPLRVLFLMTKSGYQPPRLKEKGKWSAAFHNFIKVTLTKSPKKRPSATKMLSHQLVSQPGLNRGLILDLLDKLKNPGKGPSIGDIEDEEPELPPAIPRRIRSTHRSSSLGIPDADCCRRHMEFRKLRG
result type: IC50 (nM)

Some solved cases for reference:
Cc1c(-c2cc3nc(Nc4ccc5c(c4)CCS5(=O)=O)ncc3c(N)c2F)cnc2c1NCCO2	0.0849
CC(=O)NC1CCc2cc(Nc3ncc4c(N)c(F)c(-c5cnc6c(c5C)NCCO6)cc4n3)ccc21 (single isomer, unassigned) [Compound 2-11]	0.0821

(a) Cc1c(-c2cc3nc(Nc4ccc5c(c4)CN(C)CC5(C)C)ncc3c(N)c2F)cnc2c1NCCO2
(b) COc1cc2c(cc1Nc1ncc3ccc(-c4ccc(NC(C)=O)nc4)cc3n1)CN(C)CC2
(c) Cc1c(-c2cc3nc(Nc4ccc(CS(=O)(=O)C5CC5)cc4)ncc3c(N)c2F)cnc2c1NCCO2
Enquiry: Put the items in order so that reported IC50 rises from first to last. Put the labels in the requested order and write them down.
Return: a, c, b
